System: A549 NSCLC
Assay info: NCI tumour cell line growth inhibition, 48 h
Endpoint label: TGI

1) COc1cc(C2CC(=O)Nc3c2ccc2ccccc32)cc(Br)c1OC (centres undefined)
> 49.7 µM
2) Cc1cc2oc(C)c(S(=O)(=O)NC(=O)Nc3ccc(Cl)cc3)c(=O)c2c(=O)o1
> 100 µM
3) C=Cc1nc(C#N)c(N)o1
> 100 µM
4) N#C/C(=C\c1c(-c2ccccc2)[nH]c2ccccc12)C(=O)c1ccccc1
> 100 µM

----------
Tested on: ACHN renal
Assay info: NCI tumour cell line growth inhibition, 48 h
Endpoint label: TGI

1. CC12CCC(C(=Nc3cc(C(F)(F)F)cc(C(F)(F)F)c3)C1=O)C2(C)C (stereo not drawn)
> 100 µM
2. O=C1C2=C(SCCS2)C(=O)c2c(Sc3ccc(Cl)cc3)c(Sc3ccc(Cl)cc3)c(Sc3ccc(Cl)cc3)c(Sc3ccc(Cl)cc3)c21
> 100 µM
3. Nc1c(C(=O)N/N=C/c2ccc(-c3cc(Cl)c(Cl)cc3Cl)o2)cnn1-c1ccnc2c(C(F)(F)F)cccc12
> 100 µM
4. Cc1ccc(Nc2cc(C)nc(NCCCNc3ccnc4cc(Cl)ccc34)n2)cc1
2.91 µM
5. COc1c(Cl)ccc2c(-c3nc4cc(Cl)c(F)cc4s3)cc(=O)oc12
17.2 µM
6. Cc1cc(C)c(S(=O)(=O)N(CCc2cccc(Br)c2)Cc2ccc(-c3cccc(S(C)(=O)=O)c3)cc2)c(C)c1
> 100 µM
7. CC(C)(C)OC(=O)N1[C@@H]2Cc3ccc(N)cc3[C@@]1(C)c1ccccc12
> 100 µM
8. COC(=O)[C@]12CC[C@@H](C)[C@H](C)[C@@H]1C1=CC[C@@H]3[C@@]4(C)C(C=O)=C[C@@](C)(COS(C)(=O)=O)C4[C@H](O)C[C@@]3(C)[C@]1(C)CC2 (stereo partly drawn)
2.56 µM
